Target: T1, PACAP-R3 (human, UniProt P41587 24-438)
T1 sequence (looked up): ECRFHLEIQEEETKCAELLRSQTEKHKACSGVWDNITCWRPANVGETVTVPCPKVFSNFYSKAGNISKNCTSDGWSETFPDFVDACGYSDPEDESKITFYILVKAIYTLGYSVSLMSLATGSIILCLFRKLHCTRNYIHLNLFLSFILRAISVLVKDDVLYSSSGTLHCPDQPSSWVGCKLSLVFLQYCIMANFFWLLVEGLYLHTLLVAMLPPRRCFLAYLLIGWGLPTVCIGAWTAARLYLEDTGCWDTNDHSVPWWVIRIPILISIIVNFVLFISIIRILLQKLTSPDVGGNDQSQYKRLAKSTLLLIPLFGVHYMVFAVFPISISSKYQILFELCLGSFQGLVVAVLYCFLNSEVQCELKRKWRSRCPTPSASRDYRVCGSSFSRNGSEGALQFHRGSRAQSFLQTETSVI
Assay: cell-based or functional assay
quantityMeasured: R3 Selectivity (ratio)
Please state the figure in ratio; there is no need to write the unit.

{"binder": "HSDAVFTDNYTRLRKQMAAKKYLNSIKKKR [R3P53]", "quantityMeasured": "R3 Selectivity", "readoutUnits": "ratio", "reported": 2500}

Please look up its R3 Selectivity: HSDAVFTDNYTRLRKQMAAKHYLNSIKNKRY [R3P74] 150

Quick one: R3 Selectivity of HSDAVFTDNYTRLRKQMAAKKYLNSIKNHR [R3P139] ? 50
